# System Tested: DLG4_3, P78352
# Sequence (P78352 306-403): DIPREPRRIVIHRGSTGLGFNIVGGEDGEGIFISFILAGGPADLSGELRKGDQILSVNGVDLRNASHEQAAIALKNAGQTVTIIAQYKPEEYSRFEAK
# Assay Comment: holdup assay
# Parameters: key: below the threshold = too weak to quantify, mostly under pKd 3.1 to 4
# Condition Set: plain residues with an end cap or a label only (N-terminal biotin on a linker: ttds)
Quantity: pKd

TVASEKESVM [SLC1A5, Q15758]; below the threshold
IDNDTESTAL [ARHGAP17, Q68EM7]; below the threshold
SRPQRTQTQV [HPV67-E6, A4U7F2]; 4.23
QSARYRDTEL [TJP2, Q9UDY2]; below the threshold
